- MEASURED ON: human PDHK2 (hPDHK2) (Homo sapiens, UniProt Q15119)
- EXPERIMENTAL PROTOCOL: Inhibitory action of PDHK2 activity (residual PDH activity, NADH absorbance at 340 nm)
- EXPERIMENTAL CONTEXT: PDH/hPDHK2 complex, PDHK reaction 45 min at room temperature
Response field label: string, one of yes (1) (IC50 strictly below 10 nM) or no (0).

- MOLECULE: "C[C@H]1Cn2nc(Oc3ccc(C#N)nc3)cc2-c2cnc([C@@](C)(O)C(F)(F)F)n21 [Example 95]"
  LABEL CLASS: "no (0)"
- MOLECULE: "C[C@H]1Cn2nc(OCC3CCN(C(=O)c4ccc(F)cc4)CC3)cc2-c2cnc([C@@](C)(O)C(F)(F)F)n21 [Example 69]"
  LABEL CLASS: "no (0)"
- MOLECULE: "C[C@H]1Cn2cc(C(F)(F)F)nc2-c2cnc([C@@](C)(O)C(F)(F)F)n21 [Example 19]"
  LABEL CLASS: "no (0)"
- MOLECULE: "C[C@H]1Cn2nc(OCC(C)(C)O)cc2-c2cnc([C@@](C)(O)C(F)(F)F)n21 [Example 52]"
  LABEL CLASS: "no (0)"
- MOLECULE: "C[C@H]1Cn2c(nnc2C2(c3ccc(F)cc3)CC2)-c2cnc([C@@](C)(O)C(F)(F)F)n21 [Example 81]"
  LABEL CLASS: "yes (1)"
- MOLECULE: "C[C@H]1Cn2nc(OCC(F)F)cc2-c2cnc([C@@](C)(O)C(F)(F)F)n21 [Example 46]"
  LABEL CLASS: "no (0)"
- MOLECULE: "C[C@H]1Cn2nc(OCCC(C)(C)O)cc2-c2cnc([C@@](C)(O)C(F)(F)F)n21 [Example 30]"
  LABEL CLASS: "no (0)"
- MOLECULE: "C[C@H]1Cn2nc(OC(F)F)cc2-c2cnc([C@@](C)(O)C(F)(F)F)n21 [Example 23]"
  LABEL CLASS: "no (0)"
- MOLECULE: "C[C@H]1Cn2nc(Oc3ccc(C#N)cn3)cc2-c2cnc([C@@](C)(O)C(F)(F)F)n21 [Example 47]"
  LABEL CLASS: "no (0)"
- MOLECULE: "C[C@H]1Cn2c(nnc2C2(C(F)(F)F)CC2)-c2cnc([C@@](C)(O)C(F)(F)F)n21 [Example 40]"
  LABEL CLASS: "no (0)"
- MOLECULE: "C[C@H]1Cn2nc(C(C)(C)C)cc2-c2cnc([C@@](C)(O)C(F)(F)F)n21 [Example 15]"
  LABEL CLASS: "no (0)"
- MOLECULE: "C[C@H]1Cn2nc(C(C)(C)O)cc2-c2cnc([C@@](C)(O)C(F)(F)F)n21 [Example 20]"
  LABEL CLASS: "no (0)"
- MOLECULE: "C[C@H]1Cn2nc(C#N)cc2-c2cnc([C@@](C)(O)C(F)(F)F)n21 [Example 42]"
  LABEL CLASS: "no (0)"
- MOLECULE: "C[C@H]1Cn2nccc2-c2cnc([C@@](C)(O)C(F)(F)F)n21 [Example 8]"
  LABEL CLASS: "yes (1)"
- MOLECULE: "C[C@H]1Cc2c(C(C)(C)O)noc2-c2cnc([C@@](C)(O)C(F)(F)F)n21 (racemic) [Example 25]"
  LABEL CLASS: "no (0)"
- MOLECULE: "CC(C)C(F)(F)c1nnc2n1C[C@H](C)n1c-2cnc1[C@@](C)(O)C(F)(F)F [Example 60]"
  LABEL CLASS: "yes (1)"
